Target: cellular PARG (Homo sapiens, UniProt Q86W56)
Construct: endogenous in cells
Sequence (Q86W56 whole entry): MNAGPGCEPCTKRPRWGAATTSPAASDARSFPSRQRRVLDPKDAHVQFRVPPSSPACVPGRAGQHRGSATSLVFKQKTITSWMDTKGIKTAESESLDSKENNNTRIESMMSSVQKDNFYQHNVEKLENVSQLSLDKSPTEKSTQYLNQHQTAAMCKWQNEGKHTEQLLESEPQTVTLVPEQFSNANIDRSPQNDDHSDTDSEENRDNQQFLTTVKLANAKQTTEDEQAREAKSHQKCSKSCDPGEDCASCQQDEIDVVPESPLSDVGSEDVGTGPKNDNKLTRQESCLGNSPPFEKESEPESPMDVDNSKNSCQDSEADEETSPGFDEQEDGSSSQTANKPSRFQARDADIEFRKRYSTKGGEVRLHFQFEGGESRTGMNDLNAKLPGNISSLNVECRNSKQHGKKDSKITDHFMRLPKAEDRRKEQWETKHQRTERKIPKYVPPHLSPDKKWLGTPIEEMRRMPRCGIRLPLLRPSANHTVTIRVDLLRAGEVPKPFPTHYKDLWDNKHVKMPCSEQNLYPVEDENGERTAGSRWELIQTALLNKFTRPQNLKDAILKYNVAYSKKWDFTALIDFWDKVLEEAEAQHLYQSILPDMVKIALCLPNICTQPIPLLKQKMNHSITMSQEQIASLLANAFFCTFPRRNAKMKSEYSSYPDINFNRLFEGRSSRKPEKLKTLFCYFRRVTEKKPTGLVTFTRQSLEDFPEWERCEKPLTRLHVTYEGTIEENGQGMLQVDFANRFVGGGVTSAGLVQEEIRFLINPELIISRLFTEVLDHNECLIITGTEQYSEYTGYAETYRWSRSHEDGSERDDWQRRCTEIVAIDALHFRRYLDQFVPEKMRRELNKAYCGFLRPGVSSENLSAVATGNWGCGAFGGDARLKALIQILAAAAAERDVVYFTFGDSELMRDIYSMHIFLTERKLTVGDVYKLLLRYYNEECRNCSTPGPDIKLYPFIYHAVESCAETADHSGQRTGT
Assay: Nuclear PAR accumulation assay (immunofluorescence high-content imaging)
Details: HeLa cells, 1 hour compound treatment then MMS 50 μg/mL for an additional hour
Description: Compound IC50 values for inhibition of cellular PARG were determined using an immunofluorescence high-content imaging assay for nuclear PAR accumulation. […] Nuclear PAR accumulation was evaluated using high-content fluorescence microscopy. Four fields for each well were acquired at 20× magnification resulting in at least 1,000 cells analyzed per well. […] Both the average intensity per nucleus and percent PAR positive cells were quantified. […]
Each record here notes measured IC50.

// query Entry Cc1noc(C)c1CN1C(=O)c2cc(S(=O)(=O)NC3(C)CC3)ccc2N2C1=NC[C@H]2C1CC1 [Example 69] : reported IC50 = ?
// result ≤ 100 nM
